# key: entry, value: surface tension liquid-gas
- condition: 298.15 K, Drop volume

# compound, surface tension liquid-gas / mN/m
measured = [
    ("CC(C)(C)Cl", 18.9),
    ("C1CCOC1 [tetrahydrofuran]", 27.04),
    ("C1CCOCC1 [tetrahydropyran]", 27.29),
    ("CCC(C)Cl (stereo unspecified)", 21.93),
    ("CCCCCl", 23.29),
    ("CC(C)CCl", 21.8),
]

###

- condition: 313.15 K, Drop volume
One threshold, 20 mN/m, splits the recorded surface tension liquid-gas values: lower ones are true (1), equal or higher ones are false (0).

# compound, qualitative-label
measured = [
    ("CC(C)CCl", "true (1)"),
    ("CCC(C)Cl (stereo unspecified)", "true (1)"),
    ("CCCCCl", "false (0)"),
    ("C1CCOCC1 [tetrahydropyran]", "false (0)"),
    ("C1CCOC1 [tetrahydrofuran]", "false (0)"),
    ("CC(C)(C)Cl", "true (1)"),
]

Numbers sourced from the NIST ThermoML archive (doi:10.1007/s10765-007-0169-z).
